Cited source: PubChem BioAssay

# Lookup of reported z-score keyed by entry
Assay: HepG2 liver cancer cell viability effects, profiling panel, resazurin fluorescence, 24 h, PK04 Diversity Set (AID 1172); also: test concentration not given here
Conditions: higher = more signal
Give the figure only, with no unit attached.

- C[C@@H]1CC[C@H]2C(=O)N3[C@@H](CC[C@@H](C)[C@@H]3c3cccc(N4CCOCC4)c3)C(=O)N2[C@H]1c1cccc(Br)c1: 1.05
- COc1cccc([C@@H]2[C@@H](C)CC[C@H]3C(=O)N(C)[C@@H](C(C)C)C(=O)N23)c1: 0.989
- CO[C@@H]1COC(=O)CC=C[C@@H](C)[C@H](OC)COC(=O)CC=C[C@H]1C: 0.994

Qu. Which z-score reading was recorded for the compound CC(C)C[C@@H]1NC(=O)[C@H]2C[C@@H](C(=O)NCCCCCC[N+](C)(C)C)[C@@H](c3ccc(O)cc3)N2C1=O ?
Ans. 1.27

Qu. CCOC(=O)C1=C[C@@H](c2ccccc2)N(S(=O)(=O)c2ccc(C)cc2)[C@H]1c1ccc(F)cc1 ?
Ans. -0.296

Qu. Cc1cc(C)c(C(O)C2C=CC3C(=O)N(C)C(=O)C3N2N2CCCCC2)c(C)c1 (stereo not drawn) ?
Ans. 0.0632

Qu. COCCOC(=O)N1C(=O)[C@@]2(c3cc(C#CC4=CCCCC4)ccc31)[C@H](c1ccc(O)cc1)N1[C@H](c3ccccc3)[C@H](c3ccccc3)OC(=O)[C@H]1[C@@H]2C(=O)N1CCCCCCC1 ?
Ans. 0.32

Qu. COc1cc(CO)cc(I)c1O[C@H]1C=C(C(=O)NCCO)C[C@@H](N(CC2CCCCC2)C(=O)c2cc3ccccc3oc2=O)[C@@H]1O ?
Ans. 0.479

----------
# Lookup of reported composite z-score keyed by entry
System: Sam68 (KHDRBS1)
Assay: Sam68 small-molecule binders, primary screen, biochemical, small-molecule microarray, 635 nm fluorescence (AID 1125);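 also: score merges 667 nm channel intensity with signal to noise over triplicate slides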
Conditions: small-molecule microarray binding, higher = more signal
Give the figure only, with no unit attached.

- COCCOC(=O)N1C(=O)[C@@]2(c3cc(C#CC4=CCCCC4)ccc31)[C@H](C(=O)NC[C@H](O)c1ccccc1)[C@H]1C(=O)O[C@H](c3ccccc3)[C@H](c3ccccc3)N1[C@@H]2c1ccc(OCCO)cc1: 1.3
- CN(C)CCCC[C@@H]1NC(=O)[C@@H]2C[C@H](C(=O)NCCCCCNC(=O)CS)[C@H](c3ccc(O)cc3)N2C1=O: 0.697
- CC1=C([C@H](O)CCc2ccccc2)[C@H](CO)[C@@H]2C(=O)N(Cc3ccccc3)C(=O)[C@@H]2C1: -0.364
- C=CCNC(=O)[C@H]1[C@@H]2C(=O)O[C@@H](c3ccccc3)[C@@H](c3ccccc3)N2[C@@H](c2ccccc2OCCO)[C@]12C(=O)N(C(=O)OCCOC)c1ccc(C#CCC(C(=O)OC)C(=O)OC)cc12: 1.3
- COC(=O)c1c(CC[C@@H](CO)NC(=O)N[C@H](Cn2cc(-c3cncn3C)nn2)C(C)C)oc(C(C)=O)c1C(=O)OC: 1.27
- COc1ccc([Si](C)(C)[C@H]2[C@H](CC(=O)N3Cc4ccccc4C[C@H]3CO)O[C@@]3(C(=O)N(Cc4cccc(N5CCOC5=O)c4)c4ccccc43)[C@@H]2C)cc1: 0.847

Qu. Which composite z-score reading was recorded for the molecule C[C@H]1NC(=O)[C@@H](C)NC(=O)[C@@]23C(=O)N[C@@H](Cc4ccccc4)C2[C@H](C)[C@@]2(C)O[C@H]2C3/C=C/C/C=C\CNC1=O (some centres undefined) ?
Ans. -0.344

Qu. CC(=O)NCCCC[C@@H]1NC(=O)[C@@H]2C[C@H](C(=O)NCCCCCCN(C)C)[C@H](c3ccc(O)cc3)N2C1=O ?
Ans. 1.32

Qu. C=C(C)[C@@H]1CC=C(C(O)C2C=CC3C(=O)NC(=O)C3N2Nc2ccccn2)CC1 (some centres undefined) ?
Ans. 1.31

Qu. O=C(NCc1ccccc1)c1ccc(Br)cc1[N+](=O)[O-] ?
Ans. 0.604
